Task for the reader: assign each of the following compounds its reported cytotoxicity at 70.5 h.
assay overview: Human HepG2 cell viability assay in 384 well format
Type: toxicity, cell-based
Design: dose 125 nL, time 70.5 hour; concentration not given beside the values
stated conditions: HepG2 cells, read-out: Inhibition
Supply the numeric figure in %, leaving out any unit text.

What measured cytotoxicity at 70.5 h goes with Cn1ccc(C(=O)NC2CCC23CCN(C(=O)C2CCOCC2)CC3)c1 (configuration not stated) ? -4.15

// query: `N#Cc1ccc(OCCn2cccn2)cc1` -16.4

// query: `Cc1c(CS(C)(=O)=O)cccc1NCCCC1CCCC1` -7.83

// query: CC(C)NC(=O)N1CCCC(c2nnc(CN3CCOCC3)n2C)C1 (configuration not stated) -10.9

// query: COc1ccccc1C(=O)NC(CC(=O)O)c1cccs1 (configuration not stated) -3.76

// query: CCn1cc(CN(C)C(=O)C(c2ccccc2C)N(C)C)cn1 (configuration not stated) -1.5

// query: CCc1cn[nH]c1C1CCCN(C(=O)c2noc(C)c2COC)C1 (configuration not stated) -10.2

// query: `O=C(NCCC1=CCCCC1)c1[nH]nc2c1CCCC2` 11.2

// query: `CC(C)C[C@H](N)COc1cccc(F)c1Oc1ccc(Cl)cc1` 26.2

// query: O=C(Cc1ccc(O)cc1)N1CCCC(O)(CN2CCOCC2)CC1 (configuration not stated) -7.8

// query: `CCC(=O)N1CCC(Cc2cc(Nc3ncccn3)ncn2)CC1` -4.23

// query: COCCN1C(=O)CC(N2CCN(c3ccccc3)CC2)C1=O (configuration not stated) -3.99

====

assay overview: Human HepG2 cell viability assay in 384 well format
Type: toxicity, cell-based
Parameters: dose 125 nL, time 70.5 hour; concentration not given beside the values
stated conditions: HepG2 cells, read-out: Inhibition
Decision: cytotoxicity at 70.5 h beneath -10% gives 1 (yes); cytotoxicity at 70.5 h meeting or exceeding -10% gives 0 (no).

Please check: cytotoxicity at 70.5 h for `CCOc1nnc(CN(CC)CC(=O)NC(C)C)s1` , strictly under -10% or not? 0 (no)

// query: COC(C)(CNS(=O)(=O)c1cccnc1)c1ccccc1F (configuration not stated) 1 (yes)

// query: `COc1cc(COCC2CCN(Cc3ccccn3)CC2)cc(OC)c1` 0 (no)

// query: c1cnnc(NCC2CN(Cc3cccc4c3OCCO4)CCO2)c1 (configuration not stated) 1 (yes)

// query: OC1COCCN(Cc2cc(-c3ccccc3OC(F)(F)F)no2)C1 (configuration not stated) 0 (no)

// query: c1cc(CNCC2CNc3ccnn3C2)cc(OC2CCCC2)n1 (configuration not stated) 0 (no)

// query: `Cc1ccc2cc(CNCCCN3CCOCC3)c(=O)[nH]c2c1` 1 (yes)

// query: Cc1cc(NC(=O)CCN2CCCCC2Cn2cccn2)no1 (configuration not stated) 1 (yes)

// query: `CC(C)(C)c1nc(CN(CCC2CCCCC2)CC(N)=O)no1` 0 (no)

// query: Cc1nc(NC(=O)N2CCCC(C(F)(F)F)C2)nn1C (configuration not stated) 0 (no)

// query: `O=C(C1CC(F)(F)C1)N1C[C@@H]2CN(Cc3ccsc3)CCO[C@@H]2C1` 1 (yes)

====

Task for the reader: assign each of the following compounds its reported cytotoxicity at 70.5 h.
assay overview: Human HepG2 cell viability assay in 384 well format
Format: toxicity, cell-based
Parameters: dose 125 nL, time 70.5 hour; concentration not given beside the values
stated conditions: HepG2 cells, read-out: Inhibition
Supply the numeric figure in %, leaving out any unit text.

What measured cytotoxicity at 70.5 h goes with COc1ccc(CN(C)CC2(O)CCNC2)cc1 (centres undefined) ? 0.252

// query: `OCC(CO)Nc1ccc2ccc(Cl)c(Cl)c2n1` 19.4

// query: Fc1ccccc1CN1CCCC2(CCN(c3ncccn3)C2)C1 (centres undefined) -9.02

// query: `Cc1nc(N(C)C)ncc1C(=O)NCCc1csc(-c2ccncc2)n1` -12.4

// query: `COc1ccc(CN2CC[C@H]3[C@H]2CC(=O)N3Cc2cccc(C)n2)cc1` -7.27

// query: `CCn1ccnc1CN1CCCN(C(=O)Cc2ccc(C)nc2)CC1` -14.5

// query: Cc1nn(C)c(C)c1C1CCCN1CC(=O)Nc1cccnc1 (centres undefined) 23.1

// query: `O=C(NCCn1cccn1)Nc1cc(C(=O)N2CCOCC2)ccc1Cl` -7.57

// query: Nc1nccc(C2CCCCN2Cc2cccc(F)c2)n1 (centres undefined) -2.1

// query: O=c1[nH]c2c(c(=O)n1C1CCCCC1)CCC2NCc1ccccc1 (centres undefined) -30.1

// query: `Cc1c(C(=O)NC2(C#N)CCCC2)nnn1-c1ccccc1Cl` -9.11

// query: O=C(c1ccncc1)N1CCc2ncnc(C3CCOC3)c2CC1 (centres undefined) -10.1

// query: `CC(C)(C)S(=O)(=O)CCNC(=O)c1ccc2ccccc2c1` 0.161

// query: `Cc1c(-c2cccs2)nn2c(O)c3c(nc12)CN(C(=O)C1CC1)C3` -4.82

// query: Cc1cnn(Cc2ccc(NC(=O)N3CCCCC3CO)cc2)c1 (centres undefined) 24.6

// query: `Cc1ccc(C(=O)N2CCN(CCCSCC#N)CC2)cc1F` -7.64

// query: `CN(C)C(=O)N1C[C@@H]2CC[C@H](C1)N(C/C=C/c1ccc(F)cc1)C2` -9.21

// query: `CN(Cc1cccc(-n2cccn2)c1)Cc1c[nH]cn1` -0.523

// query: c1cc(CN2CCC3(CC2)CC(N2CCCC2)CO3)co1 (centres undefined) -5.63

// query: `O=C(CCc1ccc(F)cc1)NS(=O)(=O)c1ccc2c(c1)OCCO2` -4.67

// query: `C[C@@H]1CN(CCOc2ccc(F)cc2)CC[C@@]1(O)C1CCOCC1` -2.42

// query: `CN(C)Cc1nn(C)c2c1CN(C(=O)c1cccc(C#N)c1)C2` -11.5

// query: `Cc1noc(C)c1C(=O)NCc1ccc(N2CCCCCC2)nc1` -6.77

// query: `Cc1ccc(CNC2(Cc3cc(-c4ccc(F)cc4)on3)COC2)o1` -2.05
